assay procedure: Bioavailability in rat at 10 mg/kg, po
Assay type: ADME, organism-based
run conditions: in vivo
property: bioavailability (%)

- molecule: "c1cn(-c2ccc(O[C@H]3CCCN(Cc4ccc5c(c4)OCO5)C3)cc2)cn1"
  property: "bioavailability"
  measured number: 100

* * *

assay procedure: Cmax in rat at 10 mg/kg, po
Format: ADME, organism-based
Set-up: dose 10 mg/kg, route oral
run conditions: in vivo

- molecule: "c1cn(-c2ccc(O[C@H]3CCCN(Cc4ccc5c(c4)OCO5)C3)cc2)cn1"
  Cmax / ng/mL: 800

* * *

Quick reference: pIC50 of the listed items.
study target: Nitric oxide synthase, inducible (Homo sapiens, UniProt P35228)
Sequence (P35228 whole entry): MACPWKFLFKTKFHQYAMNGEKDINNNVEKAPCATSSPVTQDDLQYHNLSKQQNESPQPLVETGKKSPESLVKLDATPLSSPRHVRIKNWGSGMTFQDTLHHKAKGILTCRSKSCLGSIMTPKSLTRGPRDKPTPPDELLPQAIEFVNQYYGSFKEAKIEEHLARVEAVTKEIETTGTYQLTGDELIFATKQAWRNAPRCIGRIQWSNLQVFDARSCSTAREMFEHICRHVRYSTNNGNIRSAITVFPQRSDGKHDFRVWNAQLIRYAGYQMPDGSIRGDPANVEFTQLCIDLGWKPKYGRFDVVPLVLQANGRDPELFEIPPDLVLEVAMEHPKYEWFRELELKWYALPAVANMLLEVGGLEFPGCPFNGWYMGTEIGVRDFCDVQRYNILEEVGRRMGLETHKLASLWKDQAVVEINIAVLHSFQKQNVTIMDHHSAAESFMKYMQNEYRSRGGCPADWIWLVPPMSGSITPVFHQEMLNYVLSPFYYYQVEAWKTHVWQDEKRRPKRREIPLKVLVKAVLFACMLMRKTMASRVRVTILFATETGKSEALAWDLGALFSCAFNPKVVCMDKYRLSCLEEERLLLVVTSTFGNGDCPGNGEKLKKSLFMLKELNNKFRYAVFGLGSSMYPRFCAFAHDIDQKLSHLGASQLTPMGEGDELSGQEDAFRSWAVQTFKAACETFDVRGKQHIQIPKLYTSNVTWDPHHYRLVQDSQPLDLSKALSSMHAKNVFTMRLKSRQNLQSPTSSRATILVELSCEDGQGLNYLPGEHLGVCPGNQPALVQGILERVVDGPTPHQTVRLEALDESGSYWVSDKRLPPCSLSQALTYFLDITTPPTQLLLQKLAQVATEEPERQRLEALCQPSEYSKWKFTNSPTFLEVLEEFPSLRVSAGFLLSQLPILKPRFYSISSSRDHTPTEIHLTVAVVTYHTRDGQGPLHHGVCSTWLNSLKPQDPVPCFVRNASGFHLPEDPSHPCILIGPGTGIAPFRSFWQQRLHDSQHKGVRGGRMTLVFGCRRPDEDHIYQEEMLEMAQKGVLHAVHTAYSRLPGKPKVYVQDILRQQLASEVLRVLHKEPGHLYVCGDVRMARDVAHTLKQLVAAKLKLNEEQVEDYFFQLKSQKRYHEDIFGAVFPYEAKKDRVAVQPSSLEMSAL
assay procedure: Inhibition of tetracycline-induced iNOS expressed in SF9 cells
pIC50: −log10 of the molar value.

- molecule: "c1cn(-c2ccc(O[C@H]3CCCN(Cc4ccc5c(c4)OCO5)C3)cc2)cn1"
  pIC50: 7.14
- molecule: "c1cn(-c2ccc(OC3CCCN(Cc4ccc5c(c4)OCO5)C3)nn2)cn1 (stereo unspecified)"
  pIC50: 6.23
- molecule: "c1cn(-c2ccc(OCC3CCCCN3Cc3ccc4c(c3)OCO4)cc2)cn1 (stereo unspecified)"
  pIC50: 5.66
- molecule: "c1cn(-c2ccc(OC3CCCN(Cc4ccc5c(c4)OCO5)C3)cc2)cn1 (stereo unspecified)"
  pIC50: 6.60
- molecule: "c1cn(-c2ccc(NC3CCCN(Cc4ccc5c(c4)OCO5)C3)cc2)cn1 (stereo unspecified)"
  pIC50: 6.92
- molecule: "c1cn(-c2ccc(OC[C@H]3CCCN3Cc3ccc4c(c3)OCO4)cc2)cn1"
  pIC50: 5.92

* * *

assay procedure: Metabolic stability in dog liver microsomes after 3 hrs
Type: ADME, Canis lupus familiaris, Microsome
run conditions: read-out: Stability

- molecule: "c1cn(-c2ccc(O[C@H]3CCCN(Cc4ccc5c(c4)OCO5)C3)cc2)cn1"
  unit symbol: "%"
  remaining at 3 h: 89

* * *

assay procedure: AUC (infinity) in rat at 10 mg/kg, po
Format: ADME, organism-based
Set-up: time infinity, dose 10 mg/kg, route oral
run conditions: plasma

- molecule: "c1cn(-c2ccc(O[C@H]3CCCN(Cc4ccc5c(c4)OCO5)C3)cc2)cn1"
  AUC(0-inf) [ng·h/mL]: 2600

* * *

assay procedure: Volume of distribution at steady state in rat at 2 mg/kg, iv
Assay type: ADME, organism-based
Set-up: dose 2 mg/kg, route intravenous
run conditions: in vivo, read-out: Vss

- molecule: "c1cn(-c2ccc(O[C@H]3CCCN(Cc4ccc5c(c4)OCO5)C3)cc2)cn1"
  Vd: "21 L/kg"

* * *

assay procedure: Metabolic stability in rat liver microsomes after 3 hrs
Type: ADME, Microsome
run conditions: read-out: Stability
property: remaining at 3 h (%)

- molecule: "c1cn(-c2ccc(O[C@H]3CCCN(Cc4ccc5c(c4)OCO5)C3)cc2)cn1"
  measured number: 47

* * *

Test system: A 172
assay procedure: Inhibition of nitric oxide formation in human A172 cells
Assay type: functional, cell-based
pIC50: −log10 of the molar value.
property: pIC50

- molecule: "c1cn(-c2ccc(OC3CCN(Cc4ccc5c(c4)OCO5)C3)cc2)cn1 (stereo not given)"
  study target: "A 172"
  censor symbol: "="
  measured number: 5.38
- molecule: "c1cn(-c2ccc(OCC3CCCN(Cc4ccc5c(c4)OCO5)C3)cc2)cn1 (stereo not given)"
  study target: "A 172"
  censor symbol: "<"
  measured number: 5.00
- molecule: "c1cn(-c2ccc(O[C@@H]3CCCN(Cc4ccc5c(c4)OCO5)C3)cc2)cn1"
  study target: "A 172"
  censor symbol: "="
  measured number: 5.77
- molecule: "c1cn(-c2ccc(O[C@@H]3CCN(Cc4ccc5c(c4)OCO5)C3)cc2)cn1"
  study target: "A 172"
  censor symbol: "<"
  measured number: 5.00
- molecule: "c1cn(-c2ccc(NC3CCCN(Cc4ccc5c(c4)OCO5)C3)cc2)cn1 (stereo not given)"
  study target: "A 172"
  censor symbol: "="
  measured number: 8.00
- molecule: "c1cn(-c2ccc(OCCN(Cc3ccc4c(c3)OCO4)Cc3ccc4c(c3)OCO4)cc2)cn1"
  study target: "A 172"
  censor symbol: "="
  measured number: 5.82
- molecule: "CCOC(=O)CN(CCOc1ccc(-n2ccnc2)cc1)Cc1ccc2c(c1)OCO2"
  study target: "A 172"
  censor symbol: "="
  measured number: 5.92
- molecule: "O=C(CN(CCOc1ccc(-n2ccnc2)cc1)Cc1ccc2c(c1)OCO2)NCc1ccc2c(c1)OCO2"
  study target: "A 172"
  censor symbol: "="
  measured number: 6.19
- molecule: "c1cn(-c2ccc(OC3CCCCN(Cc4ccc5c(c4)OCO5)C3)cc2)cn1 (stereo not given)"
  study target: "A 172"
  censor symbol: "="
  measured number: 7.11
- molecule: "c1cn(-c2ccc(OC3CCCN(Cc4ccc5c(c4)OCO5)C3)nn2)cn1 (stereo not given)"
  study target: "A 172"
  censor symbol: "="
  measured number: 7.28
